Provide the recorded activity remaining for the entries that follow.
test system: Aerobactin synthetase IucA (Klebsiella pneumoniae hvKP1); assay: Biochemical IucA enzyme inhibition primary screen of the Spectrum library (AID 1346200); details: malachite green pyrophosphate, A620, at 8 µM, active compounds read low;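 also: 100% = wells without compound and 0% = wells lacking enzyme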
Residues, ends and D or L forms follow the SMILES beside them.
Number in %, nothing else.

IN: Form field: reported activity remaining of COc1cc([C@@H]2c3cc4c(cc3[C@H](O)[C@H]3COC(=O)[C@@H]23)OCO4)cc(OC)c1OC
OUT: 82.7

IN: Any idea what its activity remaining is? The compound is CC12CCCCC1(Br)[N+](=O)N2[O-] (stereo not drawn)
OUT: 108

IN: Item CCCCCCOc1ccccc1C(N)=O has what recorded activity remaining?
OUT: 96.8

IN: Which activity remaining is reported for this compound? Nc1nc(N)c2nc(-c3ccccc3)c(N)nc2n1
OUT: 114

IN: Need activity remaining, item COC(=O)[C@H](Cc1ccccc1)NC(=O)[C@@H](N)CC(=O)O (H-Asp-Phe-OMe)
OUT: 104

IN: Tell me the measured activity remaining of Cc1cc(=O)c2c(O)cc(O)c(C)c2o1 , please.
OUT: 99.3

IN: // lookup activity remaining for NC(=O)c1ncn([C@@H]2O[C@H](CO)[C@@H](O)[C@H]2O)n1
OUT: 120

IN: State the recorded activity remaining for this entry: Cc1cc(OC(=O)c2c(C)cc(O)cc2O)cc(O)c1C(=O)O
OUT: 115

IN: Consider the compound O=c1c(O)c(-c2ccc(O)cc2)oc2ccccc12 and give its measured activity remaining.
OUT: 104

IN: Look up activity remaining: CC1Cc2ccccc2N1NC(=O)c1ccc(Cl)c(S(N)(=O)=O)c1 (stereo not drawn)
OUT: 101

IN: // activity remaining lookup, key: O=C(O)P(=O)(O)O
OUT: 112

IN: // query activity remaining value for entry CN1CCc2cc3c(cc2C1O)OCO3 (stereo not drawn)
OUT: 118

IN: Any idea what activity remaining was measured for O=C(O)c1ccccc1O ?
OUT: 121

IN: Recorded activity remaining for CN1C2CCC1CC(OC(c1ccccc1)c1ccccc1N)C2 (stereo not drawn) , please?
OUT: 118

IN: Please report the recorded activity remaining for CC(C)c1c(O)ccc2c1CCC1[C@@](C)(C=O)CCC[C@]21C (stereo partly drawn) .
OUT: 99.8

IN: What value of measured activity remaining is listed for CC(=O)O[C@H]1C[C@@H](OC(C)=O)C(C)(C)C2C[C@@H](O)[C@]3(C)C(CC[C@@]4(C)[C@H](c5ccoc5)OC(=O)[C@H]5O[C@]543)[C@]21C (stereo partly drawn) ?
OUT: 94.5

IN: Entry CN(C)CCN(Cc1cccs1)c1ccccn1 has what activity remaining?
OUT: 120

IN: Recorded activity remaining for O=C(O)CN(CCN(CC(=O)O)CC(=O)O)CC(=O)O , please?
OUT: 108

IN: # get_value(readout='activity remaining', item= COc1c(O)cc2c(-c3ccccc3)cc(=O)oc2c1OC )
OUT: 130

IN: Need activity remaining, item CC(C)CCCC(C)N (stereo not drawn)
OUT: 121

IN: What activity remaining value was documented for this compound, C=Cc1c(C)c2cc3[nH]c(cc4nc(cc5nc(cc1[nH]2)C(C)=C5CCC(=O)O)C(CCC(=O)O)=C4C)c(C)c3C=C ?
OUT: 97.5

IN: Any idea what its activity remaining is? The compound is CC1(C)C2CC[C@]3(C)C(C(=O)C=C4[C@@H]5C[C@@](C)(C(=O)O)CC[C@]5(C)CC[C@]43C)[C@@]2(C)CC[C@@H]1O (stereo partly drawn)
OUT: 126

IN: Look at this compound and give its reported activity remaining. CC(C)[N+]1(C)C2CC[C@@H]1CC(OC(=O)C(CO)c1ccccc1)C2 (stereo partly drawn)
OUT: 109

###

assay: sensitizers of A549 cells to miR-34 induction, primary screen, imaging, A549 dox-inducible miR-34, nuclei and caspase counts (AID 1347080); details: A549 miR-34 inducible, Hoechst nuclei count, 48 h; cell number ratio, induced over uninduced
The source made the active and inactive calls.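 How the source made its calls: active means compounds whose cell count with miR-34 switched on is under 0.7 times the count with it off; inactive means the rest.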
The reply should be one of these categories: true (1) = active, false (0) = inactive

IN: Identify the outcome logged in this assay for the molecule shown: CCCN(CCC)[C@@H]1CCc2c(OC)cccc2[C@@H]1C
OUT: false (0)

IN: Any idea what this test logged for O=C1Nc2cc(Cl)c(Cl)cc2N2CCNCC12 (stereo not given) ?
OUT: false (0)

IN: // return assay outcome for CC(C(=O)OC1CC2CCC(C1)N2C)c1ccc(Br)cc1 (stereo not given)
OUT: false (0)

IN: What was the test verdict on CC1C=CC=CCCC=CC=CC=CC=CC(OC2OC(C)C(O)C(N)C2O)CC2O[C@@](O)(CC(O)C(O)CCC(O)CC(O)CC(O)CC(=O)OC(C)C(C)C1O)CC(O)C2C(=O)O (stereo not given in full) ?
OUT: false (0)

IN: Record request — test call for CCOc1ccccc1-n1c(C(C)N2CCN(C(=O)COc3ccc(Cl)cc3)CC2)nc2ccccc2c1=O (stereo not given)
OUT: false (0)

IN: Dear all, I need the recorded test outcome for O=C(CCCN1CCC2(CC1)C(=O)N(Cc1cccc(F)c1)CN2c1ccccc1)c1ccc(F)cc1 , thank you.
OUT: false (0)

IN: Dear colleague, could you share the recorded outcome for Oc1cc2c(cc1O)[C@H]1c3ccccc3CN[C@@H]1CC2 when you have a moment?
OUT: false (0)

IN: Tell me the assay call for C[C@H](CCC(=O)O)C[C@H](C)C[C@H](C)C(=O)/C=C(\O)[C@H](C)C[C@H](C)C/C=C/[C@@H](C)[C@@H](O)[C@@H](C)[C@@H](O)C[C@@H]1CC[C@@](C)([C@H]2CC[C@@](C)([C@@H](C)O)O2)O1 please.
OUT: true (1)

IN: Recorded test outcome, item COc1ccc2c(c1)c(CCN1CCOCC1)c(C)n2C(=O)c1cccc(Cl)c1Cl
OUT: false (0)

IN: Tell me the assay call for CCC(Oc1ccc(Cl)cc1)C(=O)OC1CC2CCC(C1)N2C (stereo not given) please.
OUT: false (0)

###

system: Aerobactin synthetase IucA (Klebsiella pneumoniae hvKP1); test: Biochemical IucA enzyme inhibition primary screen of the Spectrum library (AID 1346200); conditions: malachite green pyrophosphate, A620, at 8 µM, active compounds read low;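 also: 100% = wells without compound and 0% = wells lacking enzyme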
measured attribute: activity remaining (%)
Give the number; % is assumed, so skip it.

IN: Lab note: need activity remaining with Aerobactin synthetase IucA (Klebsiella pneumoniae hvKP1) for entry CC/C(=C(/CC)c1ccc(O)cc1)c1ccc(O)cc1 , please look it up.
OUT: 104

IN: What is its activity remaining for Aerobactin synthetase IucA (Klebsiella pneumoniae hvKP1)? Entry: CC[C@@]1(O)C[C@H](O)c2c(cc3c(c2O)C(=O)c2c(O)ccc(O)c2C3=O)[C@H]1C(=O)OC
OUT: 112

IN: Return activity remaining measured with Aerobactin synthetase IucA (Klebsiella pneumoniae hvKP1) given this compound: O=c1cc(-c2ccc(O)cc2)oc2cc(O[C@@H]3O[C@H](CO)[C@@H](O)[C@H](O)[C@H]3O[C@@H]3OC[C@](O)(CO)[C@H]3O)cc(O)c12
OUT: 103

IN: Lab note: need activity remaining for O=C1c2ccc(O)c(O)c2C(=O)c2c(O)ccc(O)c21 on Aerobactin synthetase IucA (Klebsiella pneumoniae hvKP1), anyone have it?
OUT: 125

IN: Test system Aerobactin synthetase IucA (Klebsiella pneumoniae hvKP1); read-out activity remaining; what value for CC1(C)CC2C1CCC1(C)OC1CCC2(C)O (centres undefined) ?
OUT: 120

IN: Write down the reported activity remaining of NC[C@H]1O[C@H](OC2[C@@H](N)C[C@@H](N)[C@H](O[C@H]3O[C@H](CO)[C@@H](O)[C@H](N)[C@H]3O)[C@H]2O)[C@H](O)[C@@H](O)[C@@H]1O (some centres undefined) , test system: Aerobactin synthetase IucA (Klebsiella pneumoniae hvKP1).
OUT: 97

IN: So what activity remaining did COc1ccc2c(c1)OC[C@@H](Cc1ccc(OC)c(OC)c1)[C@H]2O get with Aerobactin synthetase IucA (Klebsiella pneumoniae hvKP1)?
OUT: 109

IN: activity remaining of O=C(O)CCNC(=O)c1ccccc1 on Aerobactin synthetase IucA (Klebsiella pneumoniae hvKP1)?
OUT: 103

IN: Return activity remaining measured with Aerobactin synthetase IucA (Klebsiella pneumoniae hvKP1) given this compound: CC(=O)N[C@@H](CC(=O)O)C(=O)O
OUT: 110

###

assay: glucagon-like peptide 1 release enhancers, primary assay, NCI-H716 cell line, NPC library (AID 1117341); settings: NCI-H716 cells, at 10 µM, active compounds read high; also: reference of the scale not given here
measured attribute: GLP1 secretion stimulation (%)
Write the answer as a number in %, unit excluded.

IN: Which GLP1 secretion stimulation value belongs to CNCC(=O)c1ccc(O)c(O)c1 ?
OUT: -4.7

IN: Please report the recorded GLP1 secretion stimulation for CC[N+](CC)(CC)CC .
OUT: -1.5

IN: So what does the record say about GLP1 secretion stimulation for O=C1C(I)=CC(=C(c2cc(I)c(O)c(I)c2)c2ccccc2C(=O)O)C=C1I ?
OUT: -3.3

IN: Need GLP1 secretion stimulation of Cc1cc(O)ccc1Cl , thanks.
OUT: 0.3

IN: # input molecule: CCC1(c2ccccc2)C(=O)N(COC)C(=O)N(COC)C1=O ; wanted: its GLP1 secretion stimulation
OUT: 1.4

IN: Using the record for COC[C@@H](NC(C)=O)C(=O)NCc1ccccc1 , report its GLP1 secretion stimulation.
OUT: -0.8

IN: May I ask what GLP1 secretion stimulation has been recorded for O=P1(NCCCl)OCCCN1CCCl (stereo unspecified) ?
OUT: -0.1

IN: So what does the record say about GLP1 secretion stimulation for O=C(CCCN1CCC2(CC1)C(=O)NCN2c1ccccc1)c1ccc(F)cc1 ?
OUT: 8

IN: Could you share which GLP1 secretion stimulation value was measured for CCCC(C)C1(CC)C(=O)N=C(S)NC1=O (stereo unspecified) ?
OUT: 0.9

IN: Please look up its GLP1 secretion stimulation: CNC(=O)NC(O)C(Cl)(Cl)Cl (stereo unspecified)
OUT: 3.1

IN: GLP1 secretion stimulation lookup needed for CN1C2CCC(C)(C)C1CC(OC(=O)C(O)(c1cccs1)c1cccs1)C2 (stereo unspecified) , thanks.
OUT: -0.7

IN: Which value of GLP1 secretion stimulation has been reported for CCOC(=O)C(c1c(O)c2ccccc2oc1=O)c1c(O)c2ccccc2oc1=O in the records?
OUT: -0.8

IN: Name the recorded GLP1 secretion stimulation for CCCCCCCCC(=O)NCc1ccc(O)c(OC)c1 .
OUT: 4

IN: Endpoint output: GLP1 secretion stimulation of O=c1[nH]c2ccccc2n1C1CCNCC1 . Value?
OUT: 1.9

IN: Which GLP1 secretion stimulation value is on record for Cc1cccc(C)c1NC(=O)CN1CCCC1=O ?
OUT: -2.4

IN: Look up GLP1 secretion stimulation: NC(=O)CN1CCCC1=O
OUT: 1.9

IN: Would you mind telling me what GLP1 secretion stimulation value was observed for O=C(NC(=O)c1c(F)cccc1F)Nc1ccc(Cl)c(Oc2ncc(C(F)(F)F)cc2Cl)c1 ?
OUT: -8.7

IN: Would you mind telling me what GLP1 secretion stimulation value was observed for Clc1cccc(N2CCNCC2)c1 ?
OUT: 6.5

IN: Quick check: GLP1 secretion stimulation of COCC(C)N(C(=O)CCl)c1c(C)csc1C (stereo unspecified) ?
OUT: -0.9

IN: Give its GLP1 secretion stimulation value. Item: O=C(O)CCCc1ccc(N(CCCl)CCCl)cc1
OUT: -0.8

IN: Using the record for COc1cccc([C@@]2(O)CCCC[C@@H]2CN(C)C)c1 , report its GLP1 secretion stimulation.
OUT: 4.9

IN: Using the record for O=c1n(Cl)c(=O)n(Cl)c(=O)n1Cl , report its GLP1 secretion stimulation.
OUT: 0.8

IN: Entry under review: CCC(CC)(CNC(=O)CCCO)c1cccc(OC)c1 . Reported GLP1 secretion stimulation?
OUT: -1.4

IN: I'd like to know its GLP1 secretion stimulation. The molecule in question is CCN[C@@H](C)Cc1cccc(C(F)(F)F)c1
OUT: 1.3

IN: Reported GLP1 secretion stimulation for CCN(CCO)CCn1c(Cc2ccccc2)nc2c1c(=O)n(C)c(=O)n2C : what is it?
OUT: -5.3

IN: Would you kindly share the measured GLP1 secretion stimulation for C[N+]1(CCC(C(N)=O)(c2ccccc2)c2ccccc2)CCCCC1 ?
OUT: 1.2
